Where do the numbers come from? From PubChem BioAssay (NCI).

Measured growth inhibition, listed per entry.
# measurementDescription: NCI Yeast Anticancer Drug Screen. Data for the cln2 rad14 strain (AID 165);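 also: 0% = growth equal to vehicle treated cultures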
# assaySetup: S. cerevisiae cln2 rad14 strain, at 50.0 µM, active compounds read high
Compounds without any hit were thinned out: in the full panel of roughly 79,000, 15% have a hit. The source made the active and inactive calls. Rule as the data show it: active = growth inhibition above about 70%; inactive = the rest.

Given the compound Nc1nc(N)nc(COc2ccccc2Cl)n1 , what is its reported growth inhibition?
9.4% (inactive)

// query: O=C1C(=O)c2ccccc2C(O)=C1CC=C(Cl)Cl
-33.1% (inactive)

Next compound up: O=C1C2=C(Nc3cc(Cl)ccc3N2)OC1c1c[nH]c2ccc(COc3ccccc3)cc12 (centres undefined)
30.4% (inactive)

Repeat for the following compound: COC(=O)c1ccc(OC(=O)Nc2ccc(Br)cc2)cc1
-4.2% (inactive)

Can you handle CCCN(Cc1ccccc1)CC(O)c1ccc(Cl)cc1 (centres undefined) next?
2.95% (inactive)

Request: CCCOC(=O)Nc1cccc(Cl)c1
-9.95% (inactive)

Quick one: O=C(O)CSc1ccc2c3c(cccc13)C(=O)c1ccccc1-2
26% (inactive)

Item: CCOC(=O)C(/C=N\c1[nH]ncc1C#N)=C(/C(=O)OCC)c1ccc(O)cc1
-21.2% (inactive)

Next up: COC(=O)C1CCC(=O)N1C(c1ccc(OC)cc1)c1ccc(OC)cc1 (centres undefined)
12.6% (inactive)
